Parameter: Kd. Scope: all listed entries.
# subject.of.test: T1, cynoSIRPα (XP_015313155), Extracellular Domain + His-Tag (cynomolgus monkey)
# T1 construct: also called CySIRPα XP_015313155; not shown: His-Tag
# T1 chain: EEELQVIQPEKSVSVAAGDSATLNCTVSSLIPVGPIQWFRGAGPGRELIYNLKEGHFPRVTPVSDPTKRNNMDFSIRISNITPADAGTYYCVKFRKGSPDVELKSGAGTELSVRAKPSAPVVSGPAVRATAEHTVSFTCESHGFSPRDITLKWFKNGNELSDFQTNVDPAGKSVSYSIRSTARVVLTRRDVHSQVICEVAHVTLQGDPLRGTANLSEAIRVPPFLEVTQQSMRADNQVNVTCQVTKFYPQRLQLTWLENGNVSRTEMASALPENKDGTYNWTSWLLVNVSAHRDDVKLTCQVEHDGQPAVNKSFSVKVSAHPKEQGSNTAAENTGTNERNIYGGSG
# protocol.description: SPR, antibody captured on Protein A/G, ECD-His analyte, 1:1 fit
I only need the number, in nM, no unit after it.

[
  {
    "binder": "Antibody E19 (antibody, human IgG1, kappa, L234A L235A, V domains shown) VH: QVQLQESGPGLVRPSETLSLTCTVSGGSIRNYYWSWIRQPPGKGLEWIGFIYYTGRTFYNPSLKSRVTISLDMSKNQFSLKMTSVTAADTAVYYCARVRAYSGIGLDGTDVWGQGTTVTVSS VL: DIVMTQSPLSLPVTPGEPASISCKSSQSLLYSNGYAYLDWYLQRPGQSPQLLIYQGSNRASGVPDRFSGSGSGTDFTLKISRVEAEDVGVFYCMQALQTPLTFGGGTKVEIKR",
    "property.measured": "Kd",
    "reported.result": 44.7
  },
  {
    "binder": "Antibody E13 (antibody, human IgG1, kappa, L234A L235A, V domains shown) VH: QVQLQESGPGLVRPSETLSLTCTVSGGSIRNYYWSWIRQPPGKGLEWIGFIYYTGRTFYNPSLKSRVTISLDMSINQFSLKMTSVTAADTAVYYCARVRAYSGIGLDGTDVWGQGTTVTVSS VL: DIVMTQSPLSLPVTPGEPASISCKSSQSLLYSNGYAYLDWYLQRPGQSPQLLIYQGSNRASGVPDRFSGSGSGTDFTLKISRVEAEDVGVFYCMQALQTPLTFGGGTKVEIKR",
    "property.measured": "Kd",
    "reported.result": 37.4
  }
]

Shifting focus to the binder that follows.
I have this binder here, Antibody E1 (antibody, human IgG1, kappa, L234A L235A, V domains shown) VH: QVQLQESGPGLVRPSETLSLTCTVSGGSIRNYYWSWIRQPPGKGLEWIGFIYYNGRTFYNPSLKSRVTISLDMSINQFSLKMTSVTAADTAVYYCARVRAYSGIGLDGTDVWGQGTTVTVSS VL: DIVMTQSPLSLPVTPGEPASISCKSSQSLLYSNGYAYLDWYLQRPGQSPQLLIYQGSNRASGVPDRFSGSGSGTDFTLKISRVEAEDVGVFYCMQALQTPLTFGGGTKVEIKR , and I need its recorded Kd.
16.7
